- tested.on: human RIPK2 recombinant kinase domain (Homo sapiens, UniProt O43353, R171C)
- Sequence (O43353 8-317 R171C): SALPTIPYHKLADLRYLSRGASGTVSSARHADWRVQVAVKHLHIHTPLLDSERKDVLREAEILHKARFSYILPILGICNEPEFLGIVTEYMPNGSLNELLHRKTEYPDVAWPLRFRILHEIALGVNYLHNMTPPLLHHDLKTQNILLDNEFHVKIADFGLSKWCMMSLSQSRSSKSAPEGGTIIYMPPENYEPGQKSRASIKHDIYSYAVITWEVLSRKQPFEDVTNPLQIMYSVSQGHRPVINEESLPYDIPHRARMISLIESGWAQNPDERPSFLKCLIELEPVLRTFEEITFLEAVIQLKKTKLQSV
- test.description: Fluorescence-based thermal shift assay
- conditions.used: read-out: thermal shift (ΔTm)
metric.name: ΔTm at 10 µM (°C)
Form entry: value (°C) — number only.

Solved entries:
c1cc(-c2cnn3cc(-c4ccc(OCCN5CCCCC5)cc4)cnc23)ccn1; 9.6
CN[C@@H]1C[C@H]2O[C@@](C)([C@@H]1OC)n1c3ccccc3c3c4c(c5c6ccccc6n2c5c31)C(=O)NC4; 9.1
Cc1nc(Nc2ncc(C(=O)Nc3c(C)cccc3Cl)s2)cc(N2CCN(CCO)CC2)n1; 9.5

Turning to the following molecule.
Incoming: State the recorded ΔTm at 10 µM for this entry: "CN1CCC(Nc2ncc3ncnc(Nc4ccc(F)c(Cl)c4)c3n2)CC1"
Outgoing: 8.7

====

- Tested on: NF-κB activation in HEKBlue cells expressing NOD2
- test.description: HEKBlue NF-κB-SEAP reporter activation assay, L18-MDP stimulation
- conditions.used: Homo sapiens, HEK-Blue, 8 h, read-out: NFκB activity EC50
metric.name: EC50 (nM)
Form entry: value (nM) — number only.

Cc1ccc(C(=O)Nc2ccc(CN3CCN(C)CC3)c(C(F)(F)F)c2)cc1C#Cc1cnc2cccnn12 [ponatinib]; 0.8
CNC(=O)c1cc(Oc2ccc(NC(=O)Nc3ccc(Cl)c(C(F)(F)F)c3)c(F)c2)ccn1 [regorafenib]; 3.8

Incoming: State the recorded EC50 for this entry: CNC(=O)c1cc(Oc2ccc(NC(=O)Nc3ccc(Cl)c(C(F)(F)F)c3)cc2)ccn1 [sorafenib]
Outgoing: 16.9
